- target desc: recombinant human 11 β-HSD1 (Homo sapiens, UniProt P28845)
- Sequence (P28845 whole entry): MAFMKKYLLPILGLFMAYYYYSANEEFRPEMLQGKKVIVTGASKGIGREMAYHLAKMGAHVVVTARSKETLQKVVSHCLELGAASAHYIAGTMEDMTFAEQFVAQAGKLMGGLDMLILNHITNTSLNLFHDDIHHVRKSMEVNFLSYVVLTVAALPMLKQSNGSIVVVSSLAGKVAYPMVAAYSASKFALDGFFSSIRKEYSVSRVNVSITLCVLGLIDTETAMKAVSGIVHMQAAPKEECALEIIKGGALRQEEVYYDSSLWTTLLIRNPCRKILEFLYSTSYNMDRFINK
- assay notes: 11 β-HSD1 SPA Assay (Scintillation Proximity Assay)
value kind: IC50

Quick note, IC50 for C[C@H](NC(=O)c1ccc(N2C3CCC2CC(NC(=O)C(C)(C)Oc2ccc(F)cc2F)C3)nc1)C(F)(F)F (some centres unmarked) landed at < 200 nM

Quick note, IC50 for CC(C)(Oc1ccc2ccccc2n1)C(=O)N[C@H]1C[C@H]2CC[C@@H](C1)N2c1ccc(C(N)=O)cn1 landed at < 200 nM

Quick note, IC50 for CC(C)NC(=O)c1ccc(N2[C@@H]3CC[C@H]2C[C@@H](NC(=O)C(C)(C)Oc2ccc(Cl)c(F)c2)C3)nc1 landed at < 200 nM

Quick note, IC50 for CC(C)(Oc1ccccc1S(C)(=O)=O)C(=O)N[C@H]1C[C@H]2CC[C@@H](C1)N2c1ccc(C(N)=O)cn1 landed at < 200 nM

Quick note, IC50 for CC(C)(Oc1cc(F)c(F)cc1Cl)C(=O)N[C@H]1C[C@H]2CC[C@@H](C1)N2c1ccc(C(N)=O)cn1 landed at < 200 nM

Quick note, IC50 for CC(C)(Oc1ccc(C(F)(F)F)cn1)C(=O)N[C@H]1C[C@H]2CC[C@@H](C1)N2c1ccc(S(C)(=O)=O)cc1 landed at < 2000 nM

Quick note, IC50 for CC(C)(Oc1ccc(Cl)cc1C(F)(F)F)C(=O)N[C@H]1C[C@H]2CC[C@@H](C1)N2c1ccc(C(=O)NCC(F)F)cn1 landed at < 200 nM

Quick note, IC50 for CC(C)(Oc1ccc(F)cc1Cl)C(=O)N[C@H]1C[C@H]2CC[C@@H](C1)N2c1ccc(C(N)=O)cn1 landed at < 200 nM

Quick note, IC50 for CC(C)(Oc1ccc(C(F)(F)F)cn1)C(=O)N[C@H]1C[C@H]2CC[C@@H](C1)N2c1ccc(S(N)(=O)=O)cc1 landed at < 2000 nM

Quick note, IC50 for CC(C)(Oc1ccc(Cl)cc1Cl)C(=O)N[C@H]1C[C@H]2CC[C@@H](C1)N2c1ccc(NC(=O)NCC(F)(F)F)cn1 landed at < 200 nM

Quick note, IC50 for CC(C)(Oc1ccc(Cl)cc1Cl)C(=O)N[C@H]1C[C@H]2CC[C@@H](C1)N2c1ccc(C#N)cn1 landed at < 200 nM

Quick note, IC50 for CC(C)(Oc1cc(OCCO)c(Cl)cc1Cl)C(=O)N[C@H]1C[C@H]2CC[C@@H](C1)N2c1ccc(C(=O)NCC(F)F)cn1 landed at < 200 nM

Quick note, IC50 for CC(C)(Oc1cc(F)c(Cl)cc1Cl)C(=O)N[C@H]1C[C@H]2CC[C@@H](C1)N2c1ccc(C(=O)NCC(F)F)cn1 landed at < 200 nM

Quick note, IC50 for CC(C)(Oc1ccc2ccccc2c1Cl)C(=O)N[C@H]1C[C@H]2CC[C@@H](C1)N2c1ccc(C(=O)NCC(F)(F)F)cn1 landed at < 200 nM

Quick note, IC50 for COc1ccc(OC(C)(C)C(=O)N[C@H]2C[C@H]3CC[C@@H](C2)N3c2ccc(C(=O)NC3CC3)cn2)cc1 landed at < 200 nM

Quick note, IC50 for CC(C)(Oc1ccc(Cl)cc1Cl)C(=O)NC1CC2CCC(C1)N2c1ccc(C(=O)NCC(O)C(F)(F)F)cn1 (centres unmarked) landed at < 200 nM

Quick note, IC50 for CC(C)(Oc1ccc(F)c(Cl)c1)C(=O)N[C@H]1C[C@H]2CC[C@@H](C1)N2c1ccc(S(N)(=O)=O)cn1 landed at < 200 nM

Quick note, IC50 for CC(C)(Oc1cc(Cl)c(F)cc1Cl)C(=O)N[C@H]1C[C@H]2CC[C@@H](C1)N2c1ccc(S(C)(=O)=O)cn1 landed at < 200 nM

Quick note, IC50 for CC(C)(Oc1ccc(Cl)cc1Cl)C(=O)N[C@H]1C[C@H]2CC[C@@H](C1)N2c1ccc(S(C)(=O)=O)nc1 landed at < 200 nM

Quick note, IC50 for CC(C)(Oc1ccc(Cl)cc1C(F)F)C(=O)NC1CC2CCC(C1)N2c1ccc(C(=O)NC2CC2(F)F)cn1 (centres unmarked) landed at < 200 nM

Quick note, IC50 for CC(C)(Oc1cc(C(C)(C)O)c(Cl)cc1Cl)C(=O)N[C@H]1C[C@H]2CC[C@@H](C1)N2c1ccc(C(=O)NCC(F)F)c[n+]1[O-] landed at < 2000 nM

Quick note, IC50 for CC(C)(Oc1ccc(Cl)c(F)c1)C(=O)N[C@H]1C[C@H]2CC[C@@H](C1)N2c1ccc(S(C)(=O)=O)cc1 landed at < 2000 nM

Quick note, IC50 for CC(C)(Oc1cccc2cc[nH]c12)C(=O)N[C@H]1C[C@H]2CC[C@@H](C1)N2c1ccc(C(=O)NCC(F)(F)F)cn1 landed at < 200 nM

Quick note, IC50 for CC(C)(Oc1ccc(F)c(F)c1)C(=O)N[C@H]1C[C@H]2CC[C@@H](C1)N2c1ccc(C(=O)NCC(F)(F)F)cn1 landed at < 200 nM

Quick note, IC50 for CC(C)(Oc1c(F)cc(F)cc1F)C(=O)N[C@H]1C[C@H]2CC[C@@H](C1)N2c1ccc(S(C)(=O)=O)cc1 landed at < 200 nM

Quick note, IC50 for CC(C)(C(=O)N[C@H]1C[C@H]2CC[C@@H](C1)N2c1ccc(C(=O)NC2CC2)cn1)c1ccccc1 landed at < 200 nM

---

- target desc: recombinant human 11 β-HSD1 (Homo sapiens, UniProt P28845)
- Construct: made in house; host or cells: E. coli
- assay notes: 11 β-HSD1 SPA Assay (Scintillation Proximity Assay)
- Format: biochemical
pIC50: −log10 of the molar value.
Answer each item with its documented pIC50.

Quick note, pIC50 for CC(C)(Oc1ccc(F)cc1S(C)(=O)=O)C(=O)N[C@H]1C[C@H]2CC[C@@H](C1)N2c1ccc(S(N)(=O)=O)cn1 landed at > 5.70

Quick note, pIC50 for CC(C)(Oc1ccc(Cl)c(F)c1)C(=O)N[C@H]1C[C@H]2CC[C@@H](C1)N2c1ccc(C(=O)NCC(F)(F)F)cc1 landed at > 6.70

Quick note, pIC50 for CC(C)(Oc1ccc(OC(F)(F)F)cc1)C(=O)N[C@H]1C[C@H]2CC[C@@H](C1)N2c1ccc(C(=O)NCC(F)(F)F)cn1 landed at > 6.70

Quick note, pIC50 for CC(C)(Oc1cc(Cl)c(F)cc1Cl)C(=O)N[C@H]1C[C@H]2CC[C@@H](C1)N2c1ccc(S(N)(=O)=O)cn1 landed at > 6.70

Quick note, pIC50 for CC(C)(Oc1cccc2[nH]ncc12)C(=O)N[C@H]1C[C@H]2CC[C@@H](C1)N2c1ccc(C(=O)NCC(F)(F)F)cn1 landed at > 6.70

Quick note, pIC50 for CC(C)(Oc1ccc(F)cc1C(F)(F)F)C(=O)NC1CC2CCC(C1)N2c1ccc(C(=O)NC2CC2(F)F)cn1 (centres unmarked) landed at > 6.70

Quick note, pIC50 for CC(C)(Oc1ccc(Cl)cc1Cl)C(=O)N[C@H]1C[C@H]2CC[C@@H](C1)N2c1ccc(C(=O)NCC(F)(F)F)nc1 landed at > 6.70

Quick note, pIC50 for CC(C)(Oc1ccc(Cl)cc1)C(=O)N[C@H]1C[C@H]2CC[C@@H](C1)N2c1ccc(S(N)(=O)=O)cn1 landed at > 6.70

Quick note, pIC50 for COCCNC(=O)c1ccc(N2[C@@H]3CC[C@H]2C[C@@H](NC(=O)C(C)Oc2ccc(Cl)cc2)C3)nc1 (some centres unmarked) landed at > 5.00

Quick note, pIC50 for CC(C)(Oc1cc(F)c(Cl)cc1Cl)C(=O)N[C@H]1C[C@H]2CC[C@@H](C1)N2c1ccc(S(C)(=O)=O)cc1 landed at > 6.70

Quick note, pIC50 for CC(C)(Oc1ccc(Cl)cc1C(F)F)C(=O)N[C@H]1C[C@H]2CC[C@@H](C1)N2c1ccc(C(=O)NC2(CO)CC2)cn1 landed at > 6.70

Quick note, pIC50 for CS(=O)(=O)c1cccc(C2(C(=O)N[C@H]3C[C@H]4CC[C@@H](C3)N4c3ccc(S(N)(=O)=O)cn3)CC2)c1 landed at > 5.70

Quick note, pIC50 for CC(C)(Oc1cc(F)c(Cl)cc1Cl)C(=O)N[C@H]1C[C@H]2CC[C@@H](C1)N2c1ccc(C(=O)NC2CC2)cn1 landed at > 6.70

Quick note, pIC50 for CC(C)(Oc1ccc(F)c(Cl)c1)C(=O)N[C@H]1C[C@H]2CC[C@@H](C1)N2c1ccc(S(C)(=O)=O)cc1 landed at > 5.70

Quick note, pIC50 for CC(C)(Oc1ccc(F)cc1Cl)C(=O)N[C@H]1C[C@H]2CC[C@@H](C1)N2c1ccc(S(C)(=O)=O)cc1 landed at > 6.70

Quick note, pIC50 for CC(C)(Oc1ccc(F)c(Cl)c1)C(=O)N[C@H]1C[C@H]2CC[C@@H](C1)N2c1ccc(C(=O)NCC(F)(F)F)cn1 landed at > 6.70

Quick note, pIC50 for CC(C)(Oc1ccc(Cl)cc1Cl)C(=O)N[C@H]1C[C@H]2CC[C@@H](C1)N2c1ccc(N)cn1 landed at > 6.70

Quick note, pIC50 for CC(C)(Oc1ccc(F)cc1C(F)(F)F)C(=O)N[C@H]1C[C@H]2CC[C@@H](C1)N2c1ccc(C(=O)NCC(F)(F)F)cn1 landed at > 6.70

Quick note, pIC50 for CC(C)(Oc1ccc(Cl)cc1C(F)(F)F)C(=O)N[C@H]1C[C@H]2CC[C@@H](C1)N2c1ccc(NS(C)(=O)=O)cn1 landed at > 6.70

Quick note, pIC50 for CC(C)(Oc1cc(F)c(F)cc1F)C(=O)N[C@H]1C[C@H]2CC[C@@H](C1)N2c1ccc(S(N)(=O)=O)cn1 landed at > 6.70

Quick note, pIC50 for CC(C)(Oc1ccc(Cl)cc1S(C)(=O)=O)C(=O)N[C@H]1C[C@H]2CC[C@@H](C1)N2c1ccc(S(C)(=O)=O)cn1 landed at > 5.70

Quick note, pIC50 for CC(C)(Sc1ccc(Cl)cc1Cl)C(=O)N[C@H]1C[C@H]2CC[C@@H](C1)N2c1ccc(S(C)(=O)=O)cn1 landed at > 6.70

Quick note, pIC50 for CC(C)(Oc1ccc(Cl)cc1CO)C(=O)N[C@H]1C[C@H]2CC[C@@H](C1)N2c1ccc(C(=O)NCC(F)(F)F)cn1 landed at > 6.70

Quick note, pIC50 for CN(C)S(=O)(=O)c1cc(Cl)ccc1OC(C)(C)C(=O)N[C@H]1C[C@H]2CC[C@@H](C1)N2c1ccc(C(=O)NCC(F)(F)F)cn1 landed at > 6.70

Quick note, pIC50 for CC(C)(Oc1ccc(F)cc1Cl)C(=O)N[C@H]1C[C@H]2CC[C@@H](C1)N2c1ncc(C(=O)NCC(F)(F)F)cc1F landed at > 6.70

Quick note, pIC50 for CC(C)(Oc1ccc(F)cc1Cl)C(=O)N[C@H]1C[C@H]2CC[C@@H](C1)N2c1ccc(S(C)(=O)=O)nc1 landed at > 6.70
